target: recombinant 17β-HSD13 protein (Homo sapiens (Human)); assay: 17β-HSD13 biochemical assay (NAD+/NADH Glo chemiluminescence); conditions: 17β-HSD13 50 nM, NAD+ 10 mM, β-estradiol 20 μM, 2 hours room temperature
Below, each entry is listed with its recorded IC50.
measured-quantity: IC50 (nM)

compound="CCN1C(=O)N(Cc2nnc(-c3ccc(F)c(O)c3Cl)s2)C2(CC2)C1=O [Compound I-10]" measured_quantity=IC50 experimental_result=17.9
compound="O=C1N(Cc2ncccn2)C(=O)C2(CC2)N1Cc1nnc(-c2ccc(F)c(O)c2F)s1 [Compound I-21]" measured_quantity=IC50 experimental_result=620
compound="O=C1N(CCc2ccccc2)C(=O)C2(CC2)N1Cc1nnc(-c2ccc(F)c(O)c2Cl)s1 [Compound I-37]" measured_quantity=IC50 experimental_result=32.7
compound="O=C1N([C@@H](c2ccc(-c3ccc(F)cc3)cc2F)C(F)(F)F)C(=O)C2(CC2)N1Cc1nnc(-c2ccc(F)c(O)c2F)s1 [Compound I-97]" measured_quantity=IC50 experimental_result=0.79
compound="O=C1N(C(c2ccc(F)cc2F)C(F)(F)F)C(=O)C2(CC2)N1Cc1nnc(-c2ccc(F)c(O)c2Cl)s1 (single isomer, unassigned) [Compound I-54A]" measured_quantity=IC50 experimental_result=0.857
compound="O=C1N(CC(F)(F)F)C(=O)C2(CC2)N1Cc1nnc(-c2ccc(Cl)c(O)c2Cl)s1 [Compound I-17]" measured_quantity=IC50 experimental_result=106
compound="O=C1N(CCC(F)(F)F)C(=O)C2(CC2)N1Cc1nnc(-c2ccc(F)c(O)c2F)s1 [Compound I-29]" measured_quantity=IC50 experimental_result=18.6
compound="C[C@H](COCC(=O)O)N1C(=O)N(Cc2nnc(-c3ccc(F)c(O)c3F)s2)C2(CC2)C1=O [Compound I-48]" measured_quantity=IC50 experimental_result=1060
compound="O=C1N(Cc2nnc(-c3ccc(F)c(O)c3F)s2)C2(CC2)C(=O)N1C1(c2ccccc2)CC1 [Compound I-86]" measured_quantity=IC50 experimental_result=2.5
compound="CCN1C(=O)N(Cc2nnc(-c3cc(O)cc(C(F)(F)F)c3)s2)C2(CC2)C1=O [Compound I-22]" measured_quantity=IC50 experimental_result=41
compound="O=C1N([C@H](c2ccc(F)cc2F)C(F)(F)F)C(=O)C2(CC2)N1Cc1nnc(-c2ccc(F)c(O)c2F)s1 [Compound I-90A]" measured_quantity=IC50 experimental_result=1.01
compound="CC[C@@H](C)N1C(=O)N(Cc2nnc(-c3ccc(F)c(O)c3F)s2)C2(CC2)C1=O [Compound I-42]" measured_quantity=IC50 experimental_result=4.08
compound="O=C1N(C2CC2)C(=O)C2(CC2)N1Cc1nnc(-c2ccc(F)c(O)c2F)s1 [Compound I-43]" measured_quantity=IC50 experimental_result=18.5
compound="C[C@@H](CO)N1C(=O)N(Cc2nnc(-c3ccc(F)c(O)c3F)s2)C2(CC2)C1=O [Compound I-47]" measured_quantity=IC50 experimental_result=53
compound="O=C1N(Cc2ccccc2)C(=O)C2(CC2)N1Cc1nnc(-c2cc(C(F)(F)F)c(F)c(O)n2)s1 [Compound I-61]" measured_quantity=IC50 experimental_result=505

---

biological target: recombinant 17β-HSD13 protein (Homo sapiens (Human), UniProt Q7Z5P4); assay: 17β-HSD13 biochemical assay (NAD+/NADH Glo chemiluminescence); settings: 17β-HSD13 50 nM, NAD+ 10 mM, β-estradiol 20 μM, 2 hours room temperature
Sequence (Q7Z5P4 20-300): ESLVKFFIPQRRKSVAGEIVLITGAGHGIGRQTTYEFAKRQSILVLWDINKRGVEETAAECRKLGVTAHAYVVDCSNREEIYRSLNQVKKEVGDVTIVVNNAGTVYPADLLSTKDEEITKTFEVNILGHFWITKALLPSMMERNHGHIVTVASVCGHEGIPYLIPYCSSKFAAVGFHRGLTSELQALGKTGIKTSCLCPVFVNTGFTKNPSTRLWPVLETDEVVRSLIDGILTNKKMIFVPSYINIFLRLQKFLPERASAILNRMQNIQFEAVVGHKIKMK
// log10 IC50 lookup, one value per entry
measured-quantity: log10 IC50 (log10 of the value in nM)

compound=CCCN1C(=O)N(Cc2nnc(-c3ccc(F)c(O)c3F)s2)C2(CC2)C1=O measured_quantity="log10 IC50" experimental_result=1.03
compound=O=C1N(c2ccccc2)C(=O)C2(CC2)N1Cc1nnc(-c2ccc(F)c(O)c2F)s1 measured_quantity="log10 IC50" experimental_result=1.12
compound=CCN1C(=O)N(Cc2nnc(-c3ccc(Cl)c(O)c3F)s2)C2(CC2)C1=O measured_quantity="log10 IC50" experimental_result=1.90
compound=O=C1N(Cc2nnc(-c3ccc(F)c(O)c3F)s2)C2(CC2)C(=O)N1C1(C(F)(F)F)CC1 measured_quantity="log10 IC50" experimental_result=1.05
compound=O=C1N(CC(F)(F)F)C(=O)C2(CC2)N1Cc1nnc(-c2cncc(O)c2Cl)s1 measured_quantity="log10 IC50" experimental_result=2.29
compound=O=C1N(Cc2ccccc2)C(=O)C2(CC2)N1Cc1nnc(-c2ccc(F)c(O)c2F)s1 measured_quantity="log10 IC50" experimental_result=0.36
compound=CNC(=O)c1ccc(CN2C(=O)N(Cc3nnc(-c4ccc(F)c(O)c4F)s3)C3(CC3)C2=O)cc1 measured_quantity="log10 IC50" experimental_result=1.88
compound=O=C1N(Cc2ccccc2)C(=O)C2(CC2)N1Cc1nnc(-c2nc(C(F)(F)F)c(F)c(O)c2F)s1 measured_quantity="log10 IC50" experimental_result=2.21
compound="O=C1N([C@@H](c2ccccc2)C(F)(F)F)C(=O)C2(CC2)N1Cc1nnc(-c2ccc(F)c(O)c2F)s1 [Compound I-99A]" measured_quantity="log10 IC50" experimental_result=0.07
